test.protocol: Critical micelle concentration (CMC) by dye solubilization (Orange OT or DPH)
Type: physicochemical
measurement.conditions: determined by DPH (diphenylhexatriene) or Orange OT
attribute.measured: CMC (%)
Numbers only here, please. The scale is %.

Consider the worked cases shown below.
compound	units.symbol	CMC (%)
CCCCCCCCCCCCC(=O)NC(CO[C@@H]1O[C@H](CO)[C@@H](O[C@H]2O[C@H](CO)[C@@H](O)[C@H](O)[C@H]2O)[C@H](O)[C@H]1O)CO[C@@H]1O[C@H](CO)[C@@H](O[C@H]2O[C@H](CO)[C@@H](O)[C@H](O)[C@H]2O)[C@H](O)[C@H]1O [MPA5]	%	0.16
CCCCCCCCC(=O)NC(CO[C@@H]1O[C@H](CO)[C@@H](O)[C@H](O)[C@H]1O)CO[C@@H]1O[C@H](CO)[C@@H](O)[C@H](O)[C@H]1O [C8-MPA2]	%	4.3
CCCCC(CCCC)(CC(=O)NCCC[N+](C)(C)[O-])c1ccccc1 [TPA0, reference compound]	%	0.16
CCCCCCC(CCCCCC)(CC(=O)NC(CO[C@@H]1O[C@H](CO)[C@@H](O)[C@H](O)[C@H]1O)(CO[C@@H]1O[C@H](CO)[C@@H](O)[C@H](O)[C@H]1O)CO[C@@H]1O[C@H](CO)[C@@H](O)[C@H](O)[C@H]1O)c1ccccc1 [TPA17]	%	0.13

Then this compound:
response.value for CC(C)(C)CC(C)(C)c1ccc(OCC(=O)NC(COC2OC(CO)C(O)C(O)C2O)COC2OC(CO)C(O)C(O)C2O)cc1 (centres unmarked) [CGT2] (field: CMC (%)) = 0.17

The measurements presented in this section are drawn from patent US8263754B2.
